Assay: inhibitors of TNFa-induced NFkB p65 translocation, primary screen, imaging, HUVEC, MLSMR starter and 10KST1 sets (AID 438);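 note: compound added about 3h40 before a 20 min TNFalpha stimulation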
Conditions: HUVEC TNFa-induced p65 nuclear translocation; measured here: nuclei count (cytotoxicity indicator), at 2.08 µM
Where a SMILES comes first, the peptide text is derived from it. [ ]: non-standard residue; d: D form. The star is where a group is joined. ξ: configuration not given here. Cbz = O=C(OCc1ccccc1)*; ξK = NCCCCC(N)C(=O)O
The entries below come with measured cell count values attached.
PROPERTY LABEL: cell count

[
  {
    "COMPOUND": "CCOC(=O)c1c(-c2ccc(C)o2)csc1NC(=O)COC(=O)c1cccs1",
    "PROPERTY LABEL": "cell count",
    "OBSERVED RESULT": 478
  },
  {
    "COMPOUND": "COc1cc2c(cc1OC)-c1nnc(C)n1C1(CCCC1)C2",
    "PROPERTY LABEL": "cell count",
    "OBSERVED RESULT": 849
  },
  {
    "COMPOUND": "Cc1ccc(C)c(/C(O)=C2\\C(=O)C(=O)N(CCCN3CCOCC3)C2c2cccnc2)c1 (stereo unspecified)",
    "PROPERTY LABEL": "cell count",
    "OBSERVED RESULT": 529
  },
  {
    "COMPOUND": "Cc1csc(SCc2nc3sc4c(c3c(=O)[nH]2)CCC4)n1",
    "PROPERTY LABEL": "cell count",
    "OBSERVED RESULT": 562
  },
  {
    "COMPOUND": "Cc1ccccc1NC(=O)CSc1nc(N)c(C#N)c(-c2cccs2)c1C#N",
    "PROPERTY LABEL": "cell count",
    "OBSERVED RESULT": 440
  },
  {
    "COMPOUND": "CC(=O)NC(Cc1c[nH]c2ccccc12)C(=O)OCC(=O)Nc1cc(C)on1 (stereo unspecified)",
    "PROPERTY LABEL": "cell count",
    "OBSERVED RESULT": 505
  },
  {
    "COMPOUND": "CCOC(=O)N1CCC(NC(=O)CCN2C(=O)COc3ccccc32)CC1",
    "PROPERTY LABEL": "cell count",
    "OBSERVED RESULT": 322
  },
  {
    "COMPOUND": "COc1ccc(-c2nc3c(c(SCC(=O)N4CCOCC4)n2)COC(C)(C)C3)cc1",
    "PROPERTY LABEL": "cell count",
    "OBSERVED RESULT": 510
  },
  {
    "COMPOUND": "CC1(C)CC(=O)C(C=NCC2CCNCC2)=C(O)C1",
    "PROPERTY LABEL": "cell count",
    "OBSERVED RESULT": 249
  },
  {
    "COMPOUND": "O=S1(=O)CCC(NS(=O)(=O)/C=C/c2ccccc2)C1 (stereo unspecified)",
    "PROPERTY LABEL": "cell count",
    "OBSERVED RESULT": 566
  },
  {
    "COMPOUND": "Cc1nc(C)c(C(=O)C2=C(O)C(=O)N(CCCn3ccnc3)C2c2ccccc2)s1 (stereo unspecified)",
    "PROPERTY LABEL": "cell count",
    "OBSERVED RESULT": 481
  },
  {
    "COMPOUND": "COC(=O)C(CCCCNC(=O)OCc1ccccc1)NC(=O)CN (stereo unspecified) (H-Gly-[ξK](Cbz)-OMe)",
    "PROPERTY LABEL": "cell count",
    "OBSERVED RESULT": 529
  },
  {
    "COMPOUND": "Cc1cccc(-n2ncc3c(NCCCO)ncnc32)c1",
    "PROPERTY LABEL": "cell count",
    "OBSERVED RESULT": 840
  },
  {
    "COMPOUND": "CC(=O)Nc1ccc(S(=O)(=O)NCc2csc(-c3cccnc3)n2)cc1",
    "PROPERTY LABEL": "cell count",
    "OBSERVED RESULT": 356
  },
  {
    "COMPOUND": "CCC(C(=O)N1CCc2cc(OC)c(OC)cc2C1)c1ccccc1 (stereo unspecified)",
    "PROPERTY LABEL": "cell count",
    "OBSERVED RESULT": 598
  },
  {
    "COMPOUND": "Cc1ccc(S(=O)(=O)N2CCC(C(=O)NCCN3CCCCCC3)CC2)cc1",
    "PROPERTY LABEL": "cell count",
    "OBSERVED RESULT": 768
  }
]
